- target.of.assay: the molecule itself
- assay.protocol: FRET or BRET; mutant series; 0.2 mg/ml protein, 4 μM Atto550–Ni-NTA and 4 μM Atto647N–Ni-NTA on the His6 tag, 10 mM NaH2PO4/Na2HPO4, 100 mM NaCl pH 7.4; heat-induced polymerization at 65°C; time to half-maximal signal

protein	polymerization half-time (t0.5) / s
α1-antitrypsin C232S S292C/T339C (292–339) (natural protein, disulfide bond between C292 and C339 (predominantly in the disulfide-bonded form, >90%); reduced where treated with 100 mM 2-mercaptoethanol, α1-antitrypsin, wild-type (M) ORF on the C232S background; Same construct as m3 with the stated changes; source: E. coli SG13009/pREP4 (pQE-30) or BL21(DE3) (pQE-81L), purified; not shown: His6, N-terminal, kept) DPQGDAAQKTDTSHHDQDHPTFNKITPNLAEFAFSLYRQLAHQSNSTNIFFSPVSIATAFAMLSLGTKADTHDEILEGLNFNLTEIPEAQIHEGFQELLRTLNQPDSQLQLTTGNGLFLSEGLKLVDKFLEDVKKLYHSEAFTVNFGDTEEAKKQINDYVEKGTQGKIVDLVKELDRDTVFALVNYIFFKGKWERPFEVKDTEEEDFHVDQVTTVKVPMMKRLGMFNIQHSKKLSSWVLLMKYLGNATAIFFLPDEGKLQHLENELTHDIITKFLENEDRRSASLHLPKLCITGTYDLKSVLGQLGITKVFSNGADLSGVTEEAPLKLSKAVHKAVLCIDEKGTEAAGAMFLEAIPMSIPPEVKFNKPFVFLMIEQNTKSPLFMGKVVNPTQK	51
α1-antitrypsin C232S E162C/V170C (162–170) (natural protein, disulfide bond between C162 and C170 (predominantly in the disulfide-bonded form, >90%); reduced where treated with 100 mM 2-mercaptoethanol, α1-antitrypsin, wild-type (M) ORF on the C232S background; Same construct as m3 with the stated changes; source: E. coli SG13009/pREP4 (pQE-30) or BL21(DE3) (pQE-81L), purified; not shown: His6, N-terminal, kept) DPQGDAAQKTDTSHHDQDHPTFNKITPNLAEFAFSLYRQLAHQSNSTNIFFSPVSIATAFAMLSLGTKADTHDEILEGLNFNLTEIPEAQIHEGFQELLRTLNQPDSQLQLTTGNGLFLSEGLKLVDKFLEDVKKLYHSEAFTVNFGDTEEAKKQINDYVCKGTQGKICDLVKELDRDTVFALVNYIFFKGKWERPFEVKDTEEEDFHVDQVTTVKVPMMKRLGMFNIQHSKKLSSWVLLMKYLGNATAIFFLPDEGKLQHLENELTHDIITKFLENEDRRSASLHLPKLSITGTYDLKSVLGQLGITKVFSNGADLSGVTEEAPLKLSKAVHKAVLTIDEKGTEAAGAMFLEAIPMSIPPEVKFNKPFVFLMIEQNTKSPLFMGKVVNPTQK	226
α1-antitrypsin C232S S283C/P361C (283–361) (natural protein, disulfide bond between C283 and C361 (predominantly in the disulfide-bonded form, >90%); reduced where treated with 100 mM 2-mercaptoethanol, α1-antitrypsin, wild-type (M) ORF on the C232S background; Same construct as m3 with the stated changes; source: E. coli SG13009/pREP4 (pQE-30) or BL21(DE3) (pQE-81L), purified; not shown: His6, N-terminal, kept) DPQGDAAQKTDTSHHDQDHPTFNKITPNLAEFAFSLYRQLAHQSNSTNIFFSPVSIATAFAMLSLGTKADTHDEILEGLNFNLTEIPEAQIHEGFQELLRTLNQPDSQLQLTTGNGLFLSEGLKLVDKFLEDVKKLYHSEAFTVNFGDTEEAKKQINDYVEKGTQGKIVDLVKELDRDTVFALVNYIFFKGKWERPFEVKDTEEEDFHVDQVTTVKVPMMKRLGMFNIQHSKKLSSWVLLMKYLGNATAIFFLPDEGKLQHLENELTHDIITKFLENEDRRCASLHLPKLSITGTYDLKSVLGQLGITKVFSNGADLSGVTEEAPLKLSKAVHKAVLTIDEKGTEAAGAMFLEAIPMSICPEVKFNKPFVFLMIEQNTKSPLFMGKVVNPTQK	37
α1-antitrypsin C232S K168C/F189C (168–189) (natural protein, disulfide bond between C168 and C189 (predominantly in the disulfide-bonded form, >90%); reduced where treated with 100 mM 2-mercaptoethanol, α1-antitrypsin, wild-type (M) ORF on the C232S background; Same construct as m3 with the stated changes; source: E. coli SG13009/pREP4 (pQE-30) or BL21(DE3) (pQE-81L), purified; not shown: His6, N-terminal, kept) DPQGDAAQKTDTSHHDQDHPTFNKITPNLAEFAFSLYRQLAHQSNSTNIFFSPVSIATAFAMLSLGTKADTHDEILEGLNFNLTEIPEAQIHEGFQELLRTLNQPDSQLQLTTGNGLFLSEGLKLVDKFLEDVKKLYHSEAFTVNFGDTEEAKKQINDYVEKGTQGCIVDLVKELDRDTVFALVNYICFKGKWERPFEVKDTEEEDFHVDQVTTVKVPMMKRLGMFNIQHSKKLSSWVLLMKYLGNATAIFFLPDEGKLQHLENELTHDIITKFLENEDRRSASLHLPKLSITGTYDLKSVLGQLGITKVFSNGADLSGVTEEAPLKLSKAVHKAVLTIDEKGTEAAGAMFLEAIPMSIPPEVKFNKPFVFLMIEQNTKSPLFMGKVVNPTQK	1010

Provenance of the data: paper PMC4080824
